Kindly supply the reported pKi values for the records listed here.
target: Sigma non-opioid intracellular receptor 1 (Rattus norvegicus, UniProt Q9R0C9); experiment: Displacement of [3H](+)-pentazocine from opioid sigma1 receptor in rat brain homogenate
Sequence (Q9R0C9 whole entry): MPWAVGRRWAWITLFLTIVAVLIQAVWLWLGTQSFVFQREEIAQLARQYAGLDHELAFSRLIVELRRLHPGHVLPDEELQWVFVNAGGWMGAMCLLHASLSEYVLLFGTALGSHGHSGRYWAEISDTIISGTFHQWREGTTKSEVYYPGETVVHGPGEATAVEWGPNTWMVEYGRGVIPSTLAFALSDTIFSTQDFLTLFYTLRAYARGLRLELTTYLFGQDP
Numbers only, as −log10 of the molar value.

Worked examples, 8 compounds total:
• CN(CCc1cccc(OC(F)(F)F)c1)CCN1CCCCC1 = 8.52
• CN(CCc1ccccc1OC(F)(F)F)CCN1CCCCC1 = 8.52
• CN(CCc1cccc(OC(F)(F)F)c1)CCN1CCCC1 = 8.70
• COc1ccc(CCN(C)CCN2CCCCC2)cc1 = 7.68
• CN(CCc1ccc(OC(F)(F)F)cc1)CCN1CCCC1 = 8.22
• CCN(CCc1cccc(OC(F)(F)F)c1)CCN1CCCC1 = 8.30
• CCN(CCc1ccc(OC(F)(F)F)cc1)CCN1CCCCC1 = 8.70
• CN(CCc1ccc(OC(F)(F)F)cc1)CCN1CCCCC1 = 8.70

Give pKi for each of the items listed below.
1. CCN(CCc1cccc(OC(F)(F)F)c1)CCN1CCCCC1
2. CN(CCc1ccccc1OC(F)(F)F)CCN1CCCC1

Given back:
[8.70, 8.00]

Give measured pKi for every item shown.
1. CCN(CCc1ccccc1OC(F)(F)F)CCN1CCCC1
2. CCN(CCc1ccc(OC(F)(F)F)cc1)CCN1CCCC1

Given back:
1: 7.77; 2: 8.15

Asked: Determine from records and report pKi for CCN(CCc1ccccc1OC(F)(F)F)CCN1CCCCC1
Given back: 8.22
